experiment: T. cruzi intracellular proliferation inhibitors, primary screen, cell-based, beta-gal Tulahuen parasites, NIH3T3 host, luminescence (AID 624255); settings: T. cruzi beta-gal in NIH3T3, GalScreen luminescence, 90 h; at 8.34 µM; hits give high values
Screen size: about 77,000 compounds; about 4,600 (6%) were called active. Another 1% or so got no clear call; they are omitted. The sample holds actives, similar compounds and a random draw of the others, so the mix is not that of the screen.
Where inhibition equals or exceeds 30%, the correct label is 1.0; where it does not, the label is 0.0.

Some solved entries appear below for comparison.
> print(dat)
                           structure.smiles  discrete.label
1  COc1cccc(S(=O)(=O)N2C[C@@H](O)COC[C@H]3O[C@@H](CC(=O)N4CCOCC4)CC[C@@H]32)c1             0.0
2  COc1cccc(C#Cc2cnc3c(c2)C(=O)N([C@@H](C)CO)C[C@H](C)[C@@H](CN(C)C(=O)C2CCC2)O3)c1             1.0
3  O=C(CC1CC1)N1CC[C@@H]2[C@H](CO)Nc3ccc(-c4ccc(F)cc4)cc3[C@@H]21             1.0
4  CO[C@@H]1CC[C@@H]2CCOc3ccc(C#N)cc3C(=O)N(C)C[C@H](c3ccccc3)CC(=O)N(C)C[C@H]1O2             0.0

// next entry
Dear colleague, could you confirm whether C[C@H](CO)N1C[C@H](C)[C@H](CN(C)C(=O)Nc2ccc3c(c2)OCO3)Oc2ncc(C#Cc3cccc(F)c3)cc2C1=O has inhibition at or above 30%?
1.0

====

assay: T. cruzi intracellular proliferation inhibitors, primary screen, cell-based, beta-gal Tulahuen parasites, NIH3T3 host, luminescence (AID 624255); settings: T. cruzi beta-gal in NIH3T3, GalScreen luminescence, 90 h; at 8.34 µM; hits give high values
Out of some 77,000 compounds screened, about 4,600 (6%) were called active. Inconclusive results (about 1%) are left out. What follows is part of a selection rich in actives, with near analogues and random picks from the rest.
measured.quantity: inhibition (%)
# unit: % | format: bare number

Briefly, inhibition measured for C[C@@H]1CN([C@H](C)CO)C(=O)c2cc(NC(=O)Nc3ccc(C(F)(F)F)cc3)ccc2O[C@@H](C)CCCCO[C@@H]1CN(C)Cc1ccc(C(F)(F)F)cc1 : 86.3

====

experiment: T. cruzi intracellular proliferation inhibitors, primary screen, cell-based, beta-gal Tulahuen parasites, NIH3T3 host, luminescence (AID 624255); details: T. cruzi beta-gal in NIH3T3, GalScreen luminescence, 90 h; at 8.34 µM; hits give high values
Among all 77,000 compounds or so, about 4,600 (6%) were called active. Inconclusive results (about 1%) are left out. The sample holds actives, similar compounds and a random draw of the others, so the mix is not that of the screen.
measured.quantity: inhibition

Briefly, inhibition measured for O=C(c1ccccn1)N1CC[C@@H]2[C@H]1c1cc(-c3ccccc3)ccc1N[C@@H]2CO : 106% (active)

Briefly, inhibition measured for CO[C@H]1CN(C)C(=O)c2ccc(NC(C)=O)cc2OC[C@H](C)N(C(=O)c2ccccc2)C[C@H]1C : -19.6% (inactive)

Briefly, inhibition measured for CCCNC(=O)C[C@@H]1CC[C@@H]2[C@H](COc3ccc(NC(=O)c4cc(F)cc(F)c4)cc3C(=O)N2C)O1 : -19.9% (inactive)

Briefly, inhibition measured for N#Cc1cccc(-c2ccc3c(c2)[C@H]2[C@H](CCN2Cc2ccc4c(c2)OCO4)[C@@H](CO)N3)c1 : 27.1% (inactive)

Briefly, inhibition measured for CCCN1C[C@H](C)[C@H](OC)CN(C)C(=O)c2cc(NC(=O)C3CCOCC3)ccc2OC[C@@H]1C : -22.2% (inactive)

====

test: T. cruzi intracellular proliferation inhibitors, primary screen, cell-based, beta-gal Tulahuen parasites, NIH3T3 host, luminescence (AID 624255); conditions: T. cruzi beta-gal in NIH3T3, GalScreen luminescence, 90 h; at 8.34 µM; hits give high values
Screen size: about 77,000 compounds; about 4,600 (6%) were called active. About 1% were inconclusive and are not listed. The full list was thinned out, with actives kept by preference.
Where inhibition equals or exceeds 50%, the correct label is Met; where it does not, the label is Not met.

> print(dat)
                           structure.smiles  discrete.label
1  CCCC(=O)Nc1ccc2c(c1)C(=O)N(C)[C@H]1CC[C@@H](CC(=O)NCc3ccccc3)O[C@@H]1CO2         Not met
2  O=C(C[C@H]1CC[C@@H]2[C@H](COC[C@@H](O)CN2C(=O)Nc2cccc(F)c2)O1)NCc1ccccc1F         Not met
3  COCCNC(=O)C[C@H]1CC[C@H]2[C@H](COc3ccc(NC(=O)C4CCOCC4)cc3C(=O)N2C)O1         Not met
4  CNC(=O)C[C@H]1CC[C@@H]2[C@H](COc3ccc(NC(=O)C(C)C)cc3C(=O)N2C)O1         Not met
5  C[C@H](CO)N1C[C@H](C)[C@H](CN(C)C(=O)Nc2ccc(F)cc2)Oc2ncc(-c3cc4ccccc4o3)cc2C1=O             Met

Dear colleague, could you confirm whether Cc1ccc(-c2cnc3c(c2)C(=O)N([C@@H](C)CO)C[C@@H](C)[C@H](CN(C)Cc2ccccc2F)O3)cc1 has inhibition at or above 50%?
Met

Dear colleague, could you confirm whether C[C@@H]1CN([C@H](C)CO)C(=O)c2cc(-c3ccccc3)cnc2O[C@H]1CN(C)C(=O)Nc1ccccc1 has inhibition at or above 50%?
Not met

====

experiment: T. cruzi intracellular proliferation inhibitors, primary screen, cell-based, beta-gal Tulahuen parasites, NIH3T3 host, luminescence (AID 624255); settings: T. cruzi beta-gal in NIH3T3, GalScreen luminescence, 90 h; at 8.34 µM; hits give high values
In all, about 77,000 compounds went through this assay and about 4,600 (6%) were called active. Roughly 1% stayed inconclusive and do not appear here. This excerpt belongs to a sample that is enriched for actives.
Grouping rule (inhibition): low group: < 30%; middle group: ≥ 30% and < 80%; high group: ≥ 80%

Please indicate the class for C[C@H](O)C#Cc1ccc2c(c1)O[C@@H](CN(C)C(=O)C1CC1)[C@H](C)CN([C@H](C)CO)S2(=O)=O based on its inhibition.
low group

Please indicate the class for CC(C)CC#Cc1ccc2c(c1)O[C@H](CN(C)C(=O)C1CC1)[C@@H](C)CN([C@@H](C)CO)S2(=O)=O based on its inhibition.
high group

Please indicate the class for C[C@@H]1CN([C@H](C)CO)C(=O)c2cc(/C=C/c3ccccc3)cnc2O[C@@H]1CN(C)Cc1ccncc1 based on its inhibition.
high group

Please indicate the class for CC(C)CC#Cc1cnc2c(c1)C(=O)N([C@H](C)CO)C[C@H](C)[C@H](CN(C)C(=O)Nc1ccccc1F)O2 based on its inhibition.
middle group

Please indicate the class for CCCC#Cc1ccc2c(c1)O[C@H](CN(C)C(=O)C1CCCCC1)[C@H](C)CN([C@H](C)CO)S2(=O)=O based on its inhibition.
middle group

Please indicate the class for CC(C)C#Cc1ccc2c(c1)O[C@@H](CN(C)CC1CCOCC1)[C@H](C)CN([C@H](C)CO)S2(=O)=O based on its inhibition.
high group

Please indicate the class for CCCC#Cc1cnc2c(c1)C(=O)N([C@H](C)CO)C[C@H](C)[C@@H](CN(C)Cc1ccccc1)O2 based on its inhibition.
low group

Please indicate the class for C[C@@H]1CN([C@@H](C)CO)S(=O)(=O)c2ccc(/C=C/c3ccccc3)cc2O[C@H]1CN(C)Cc1ccccc1 based on its inhibition.
high group

Please indicate the class for CC(C)C#Cc1cnc2c(c1)C(=O)N([C@H](C)CO)C[C@@H](C)[C@H](CN(C)Cc1ccccc1)O2 based on its inhibition.
low group

Please indicate the class for C[C@H](CO)N1C[C@H](C)[C@H](CN(C)C(=O)Nc2cccc3ccccc23)Oc2ncc(C#Cc3ccccc3)cc2C1=O based on its inhibition.
high group

Please indicate the class for C[C@@H]1CN([C@H](C)CO)S(=O)(=O)c2ccc(-c3ccccc3)cc2O[C@H]1CN(C)C(=O)C1CCC1 based on its inhibition.
middle group

Please indicate the class for CCC(=O)N(C)C[C@H]1Oc2cc(C#CCC(C)C)ccc2S(=O)(=O)N([C@H](C)CO)C[C@H]1C based on its inhibition.
middle group

Please indicate the class for C[C@H](CO)N1C[C@H](C)[C@@H](CN(C)C(=O)C2CCCCC2)Oc2cc(-c3ccccc3)ccc2S1(=O)=O based on its inhibition.
high group

Please indicate the class for Cc1ccc(S(=O)(=O)N[C@@H]2CC[C@H](CCNC(=O)C3CCOCC3)O[C@@H]2CO)cc1 based on its inhibition.
low group

Please indicate the class for CNC[C@H]1OCCCC[C@H](C)Oc2ccc(NC(=O)Nc3c(C)noc3C)cc2C(=O)N([C@H](C)CO)C[C@H]1C based on its inhibition.
high group

Please indicate the class for C[C@@H]1CN([C@H](C)CO)C(=O)c2cc(C#Cc3ccccn3)cnc2O[C@H]1CN(C)Cc1ccccc1 based on its inhibition.
high group

Please indicate the class for C[C@H](O)C#Cc1ccc2c(c1)O[C@H](CN(C)C(=O)C1CC1)[C@@H](C)CN([C@H](C)CO)S2(=O)=O based on its inhibition.
low group

Please indicate the class for C[C@@H]1CN([C@H](C)CO)C(=O)c2cc(C#CC3CCCC3)cnc2O[C@H]1CN(C)C(=O)C1CC1 based on its inhibition.
middle group

Please indicate the class for CCC(=O)N1CC[C@@H]2[C@@H](CO)N(C)c3ccc(-c4cccc(OC)c4)cc3[C@@H]21 based on its inhibition.
high group

Please indicate the class for CC(C)C#Cc1ccc2c(c1)O[C@H](CN(C)CC1CCOCC1)[C@@H](C)CN([C@H](C)CO)S2(=O)=O based on its inhibition.
high group

Please indicate the class for C[C@@H]1CN([C@H](C)CO)S(=O)(=O)c2ccc(C#CC(C)(C)O)cc2O[C@@H]1CN(C)Cc1ccccc1 based on its inhibition.
middle group

Please indicate the class for CCC(=O)N1CC[C@H]2[C@@H]1c1cc(-c3ccc(C#N)cc3)ccc1N(C)[C@H]2CO based on its inhibition.
middle group

Please indicate the class for Cc1noc(C)c1NC(=O)Nc1ccc2c(c1)C(=O)N([C@H](C)CO)C[C@H](C)[C@@H](CN(C)S(C)(=O)=O)OCCCC[C@H](C)O2 based on its inhibition.
low group

Please indicate the class for CCCC#Cc1cnc2c(c1)C(=O)N([C@H](C)CO)C[C@@H](C)[C@@H](CN(C)C(=O)Nc1ccccc1F)O2 based on its inhibition.
low group

Please indicate the class for COc1ccc(-c2ccc3c(c2)[C@H]2[C@H](CCN2C(=O)C2CCOCC2)[C@H](CO)N3C)cc1 based on its inhibition.
low group

Please indicate the class for CO[C@H]1CN(C)C(=O)c2ccc(NC(C)=O)cc2OC[C@H](C)N(CC2CC2)C[C@@H]1C based on its inhibition.
low group

Please indicate the class for C[C@H]1CCCCO[C@@H](CN(C)C(=O)Cc2ccccc2)[C@@H](C)CN([C@@H](C)CO)C(=O)c2cc(NC(=O)c3ccccc3)ccc2O1 based on its inhibition.
middle group

Please indicate the class for CCCC(=O)Nc1ccc2c(c1)OC[C@H](C)N(CCC)C[C@@H](C)[C@@H](OC)CN(C)C2=O based on its inhibition.
low group
